Tested on: Vero E6
Test: cell viability relative to DMSO; higher = less toxic
Settings: 72 h; 100 nM
endpoint: cell viability (%)
Field format: number, assumed %, no unit text.

Using known records, supply cell viability for "CCCCCCCCCCCCCCCCCCOP(=O)([O-])OC1CC[N+](C)(C)CC1" 93.6

Answer with the recorded cell viability for the compound listed here: "CCOC(=O)C(=O)Nc1cccc(OC)c1C(N)=O" 108

Indicate the recorded cell viability value for this compound: C#C[C@]1(OC(C)=O)CC[C@H]2[C@@H]3CCC4=CC(=O)CC[C@@H]4[C@H]3CC[C@@]21C [norethindrone-acetate] 110

* * *

Exercise: for every item that follows, state its recorded cell viability.
Tested on: HepG2
Assay: cell viability relative to DMSO; higher = less toxic
Settings: 72 h; 10 nM
Counter-ions that a name gives are not always drawn.
Value expressed in %; do not type the unit.

Fill in cell viability for record "CCOC(=O)c1c(/C(C#N)=C\N)c2ccc(Cl)c(Cl)c2n1C" 105

Look up and report measured cell viability for this entry: "N#Cc1cc(F)cc(-c2nc(-c3ccc(F)cn3)no2)c1" 99.5

Supply measured cell viability of "CC(C)OC(=O)C1=CN(C(=O)c2ccc(F)c(F)c2)CC(C)(C)c2c1[nH]c1ccccc21" in your reply. 102

Item C[C@H](N)Cc1c[nH]cn1 [alpha-methylhistamine-dihydrobromide-(S)-(+)] : provide cell viability 103

For the molecule "CCCn1c(=O)c2nc(C34CC5CC(CC3C5)C4)[nH]c2n(CCC)c1=O" , give its measured cell viability value. 92.9

Kindly indicate its recorded cell viability. Item: "CCC1=C[C@@H]2CN(C1)Cc1c([nH]c3ccccc13)[C@@](C(=O)OC)(c1cc3c(cc1OC)N(C)[C@H]1[C@@](O)(C(=O)OC)[C@H](OC(C)=O)[C@]4(CC)C=CCN5CC[C@]31[C@@H]54)C2" 92.8

Report cell viability for "Nc1nc(=O)c(Br)c(-c2ccccc2)[nH]1" 118

Note cell viability for the molecule shown: "OCCOc1ccc(/C(=C(/CCCl)c2ccccc2)c2ccccc2)cc1" 97

Hello, please tell me recorded cell viability for this one: "CC(=O)CC/C=C(\C)CC/C=C(\C)CC/C=C(\C)CCC=C(C)C" 102

Please indicate cell viability recorded for "COc1cccc(-c2cc(F)ccc2[C@H]2Cc3nc(N)nc(C)c3C(=O)N2)n1" 104

Identify cell viability associated with the molecule "Cc1cc(C)n(-c2cccc([C@H](CC(=O)O)CN3CC[C@@H](CCc4ccc5c(n4)NCCC5)C3)c2)n1" 97.8

Determine from records and report cell viability for "C=C[C@@H]1C[C@]1(NC(=O)[C@@H]1C[C@@H](Oc2ncc(OC)c3ccc(Cl)cc23)CN1C(=O)[C@@H](NC(=O)OC(C)(C)C)C(C)(C)C)C(=O)NS(=O)(=O)C1CC1" 97.8

Supply cell viability value. Item: "CC(=O)Nc1c(I)cc(I)c(C(=O)O)c1I" 92.1

Please report the measured cell viability for "COC(=O)c1cc(OC)c2c(c1-c1c(CO)cc(OC)c3c1OCO3)OCO2" 97.8

Please give the documented cell viability of "CC(C)c1ccc(C(=O)c2cccs2)c(SCCCCCCCCN(C)C)n1" 94.6

Supply measured cell viability of "O=C(NC1CCC1)c1ccc(C#Cc2cccc(F)c2)nc1" in your reply. 93.9

Fill in reported cell viability for this entry: "Cc1ccc(Nc2ncc3c(n2)N(C)C(=O)N(c2cc(NC(=O)c4cccc(C(F)(F)F)c4)ccc2C)C3)cn1" 101
